protocolDetails: Udenafil solubility test at different pHs
Type: physicochemical
experimentalParameters: thermodynamic from solid; in purified water (Comparative Example 1)
endpoint: solubility at 2 h

Exam item: Recorded solubility at 2 h of CCCOc1ccc(S(=O)(=O)NCCC2CCCN2C)cc1-c1nc2c(CCC)nn(C)c2c(=O)[nH]1 (stereo not shown) , please.
Marked response: ~120 µg/mL
